- Assay: Evaluation of brain penetration in mice (blood and brain concentration at brain Cmax)
- Type: in vivo, mouse
- Cond: 1 mg/kg single oral dose, C57BL/6J mice, n=3
Measurement Type: Concentration in blood (mean ± SD) at brain Cmax (nM)

# Molecule, Reading
measured = [
    ("C[C@H](CN1CC[C@H](CC(F)F)C1)[C@H]1CC[C@H]2/C(=C/C=C3C[C@@H](O)C[C@H](O)C3)CCC[C@]12C [Compound B042]", 79),
]

P: C[C@H](CN1CC[C@H](OCC(F)F)C1)[C@H]1CC[C@H]2/C(=C/C=C3C[C@@H](O)C[C@H](O)C3)CCC[C@]12C [Compound B057]
Q: C=C1[C@H](O)CC(=C/C=C2\CCC[C@]3(C)[C@@H]([C@H](C)CN4CC[C@H](CC(F)F)C4)CC[C@@H]23)C[C@H]1O [Compound B040]
R: C=C1[C@H](O)CC(=C/C=C2\CCC[C@]3(C)[C@@H]([C@H](C)CN4CCCC(O)(C(F)F)C4)CC[C@@H]23)C[C@H]1O (single isomer, unassigned) [Compound C036a]
Order the records by Concentration in blood (mean ± SD) at brain Cmax, with each subsequent value no larger than the one before. Labels, ranked as asked.
R, P, Q
(R: 849 nM, P: 271 nM, Q: 70 nM)

P: C=C1[C@H](O)CC(=C/C=C2\CCC[C@]3(C)[C@@H]([C@@H](C)CN4CCC(C(F)F)CC4)CC[C@@H]23)C[C@H]1O [Compound C019]
Q: C[C@H](CN1CC[C@@H](OCC(F)F)C1)[C@H]1CC[C@H]2/C(=C/C=C3C[C@@H](O)C[C@H](O)C3)CCC[C@]12C [Compound B058]
Which numeric Concentration in blood (mean ± SD) at brain Cmax is bigger, that of P or that of Q ? # reply format: chosen label
P

====

- Target Desc: human VDR (Homo sapiens, UniProt P11473)
- Sequence (P11473 whole entry): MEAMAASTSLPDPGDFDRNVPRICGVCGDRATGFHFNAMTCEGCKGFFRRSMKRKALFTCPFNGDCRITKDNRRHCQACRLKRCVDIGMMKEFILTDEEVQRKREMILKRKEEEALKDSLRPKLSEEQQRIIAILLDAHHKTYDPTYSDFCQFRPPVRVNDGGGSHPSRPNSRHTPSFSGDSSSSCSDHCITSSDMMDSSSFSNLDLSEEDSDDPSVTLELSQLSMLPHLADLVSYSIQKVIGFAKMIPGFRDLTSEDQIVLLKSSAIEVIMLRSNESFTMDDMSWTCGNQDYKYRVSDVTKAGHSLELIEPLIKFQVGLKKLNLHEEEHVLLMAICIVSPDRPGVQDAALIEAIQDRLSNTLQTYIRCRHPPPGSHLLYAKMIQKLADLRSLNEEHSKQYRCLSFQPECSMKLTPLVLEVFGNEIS
- Sequence (P19793 whole entry partner): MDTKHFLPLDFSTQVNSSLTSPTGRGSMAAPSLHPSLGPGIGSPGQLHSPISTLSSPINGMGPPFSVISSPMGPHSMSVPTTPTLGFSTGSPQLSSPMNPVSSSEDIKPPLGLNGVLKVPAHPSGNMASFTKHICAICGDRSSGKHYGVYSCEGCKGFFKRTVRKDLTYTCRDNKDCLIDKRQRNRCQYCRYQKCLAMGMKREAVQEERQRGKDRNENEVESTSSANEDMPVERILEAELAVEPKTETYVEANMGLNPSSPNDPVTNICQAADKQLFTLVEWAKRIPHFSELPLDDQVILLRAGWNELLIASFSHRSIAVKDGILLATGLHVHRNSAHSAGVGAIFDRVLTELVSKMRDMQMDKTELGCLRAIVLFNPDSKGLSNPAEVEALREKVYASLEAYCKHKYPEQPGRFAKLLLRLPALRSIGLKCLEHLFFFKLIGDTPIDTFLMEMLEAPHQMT
- Assay: Evaluation of VDR transcription activity in human osteoblasts (HOS cells), luciferase reporter
- Cond: Activity (EC50, VDR transcription activity), HOS cells transfected with human VDR, human RXRα and DR3 luciferase reporter; 21 hours
Measurement Type: EC50

Example results:
# Molecule, Target Desc, Measurement Type, Reading
measured = [
    ("C[C@H](CCN1CCOC[C@H]1C)[C@H]1CC[C@H]2/C(=C/C=C3C[C@@H](O)C[C@H](O)C3)CCC[C@]12C", "human VDR (Homo sapiens, UniProt P11473)", "EC50", "10 to 100 nM"),
    ("C=C1[C@H](O)CC(=C/C=C2\\CCC[C@]3(C)[C@@H]([C@H](C)CN4CCC[C@H](C(C)(F)F)C4)CC[C@@H]23)C[C@H]1O", "human VDR (Homo sapiens, UniProt P11473)", "EC50", "1 to 10 nM"),
]

Alright, here's another molecule for you.
GET /value?item= C=C1/C(=C\C=C2/CCC[C@]3(C)[C@@H]([C@H](C)CN4CCCC(O)(CC)C4)CC[C@@H]23)C[C@@H](O)C[C@@H]1O (single isomer, unassigned) [Compound C042a] &field=EC50 returns < 1 nM

====

Listing of entries alongside the reported Mean (number of MBP-positive cells/number of Hoechst33342-positive cells).
- System: rat oligodendrocyte progenitor cells
- Assay: Promotive activity of rat oligodendrocyte progenitor cell differentiation-2 (immunostaining of MBP)
- Format: cell-based
- Cond: Test 3; vitamin D derivative 2 μM, T3 30 nM; 4 days
- Method: The promotive activity of oligodendrocyte progenitor cell (OPC) differentiation of the vitamin D derivatives was evaluated by immunostaining of MBP. Subsequently, oligodendrocyte progenitor cell separation medium was added to the flask, and the mixture was similarly shaken for about 22 hours (37° C., 200 rpm), and the supernatant was collected to prepare oligodendrocyte progenitor cells.
Please reply with the value in numeric form only.

Example results:
# Compound Structure String, Reading
measured = [
    ("C=C1/C(=C\\C=C2/CCC[C@]3(C)[C@@H]([C@H](C)CN4CCOC[C@@H]4C)CC[C@@H]23)C[C@@H](O)C[C@@H]1O", 0.37),
    ("C=C1/C(=C\\C=C2/CCC[C@]3(C)[C@@H]([C@H](C)CN4CCOC[C@H]4C)CC[C@@H]23)C[C@@H](O)C[C@@H]1O", 0.40),
    ("C[C@H](CN1CCOC[C@H]1C)[C@H]1CC[C@H]2/C(=C/C=C3C[C@@H](O)C[C@H](O)C3)CCC[C@]12C", 0.34),
]

Alright, here's another compound for you.
GET /value?item= C[C@H](CN1CCOC[C@@H]1C)[C@H]1CC[C@H]2/C(=C/C=C3C[C@@H](O)C[C@H](O)C3)CCC[C@]12C &field=Mean (number of MBP-positive cells/number of Hoechst33342-positive cells) returns 0.27

Values from patent US20230348376A1
